# target-of-assay: T1, PUF4 RNA-binding domain (Saccharomyces cerevisiae, UniProt P25339 537-888)
# T1 sequence: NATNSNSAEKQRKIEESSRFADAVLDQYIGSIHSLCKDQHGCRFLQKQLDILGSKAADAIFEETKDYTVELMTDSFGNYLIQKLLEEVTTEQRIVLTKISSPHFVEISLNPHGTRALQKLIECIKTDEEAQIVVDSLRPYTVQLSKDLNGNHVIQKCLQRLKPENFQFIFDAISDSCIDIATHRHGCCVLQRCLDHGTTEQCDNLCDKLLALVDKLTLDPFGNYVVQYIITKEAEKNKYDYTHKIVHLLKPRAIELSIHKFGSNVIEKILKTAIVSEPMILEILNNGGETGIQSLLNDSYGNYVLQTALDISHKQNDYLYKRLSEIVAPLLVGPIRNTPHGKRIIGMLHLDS
# procedure-summary: Mg; RNA-MaP; 20 mM Na-HEPES pH 7.4, 30 mM KOAc, 0.75 mM MgCl2, 0.1% Tween-20, 5% glycerol, 0.1 mg/mL BSA, 2 mM DTT; 25 C; 0.0125-409.6 nM protein
# run-conditions: tags: N-His6-TEV cleaved; C-SNAP kept, Cy3B-labelled; label: tethered on chip by stalled RNA polymerase
The reader will find reported Kd values listed item by item below.
Respond numerically; units are nM and should not be typed.

INSERT INTO assay_data (binder, number) VALUES
  ('Ie_S4_P5E.1_K5.1_C5.1_H5.1_[+2TTCC]_A5.1_F5.1_T5.1 (ssRNA) RNA: UUUGACAACUGAUCGUUCUUUCUUGUUCCUAUUAUUAUUCUUUCUCGAUCAGUUGUCUUU', 26.4);

Query: # lookup: Kd of Id_ii_S2_P3E.3_K3.2_C3.2_[T-1C]_H3.2_A3.1_F3.1_T3.2_[T9G]_[A10T] (ssRNA) RNA: UUUGAUUAAUAUGAUAUCGUUCUUUCUCCUAUAUAUAGUUUCUUUCUCGAUAUCAUAUUAAUCUUU
Reply: 718

Query: # lookup: Kd of ACAAACACUAUAUAUAAGACAAAC (ssRNA) [Id_ii_S3_P3E.3_K3.2_C3.2_[C-2A]_[T-1C]_H3.2_A3.1_F3.1_T3.2_[T9A]_[A10G]]
Reply: 450

Recorded values, source paper PMC9352680.
